# METHOD: Drug repurposing screens with cells derived from glioblastoma tumor samples (AID 1345199); also: % is scaled to controls: 0 for no effect and ±100 for the full control effect; nearly all actives have a fitted effect of over 40% in size
# RECORDED CONDITIONS: GBM patient neurospheres viability, ATP luminescence, 48 h; at 20 µM (top of the series); tumour line C
Inconclusive results are not listed.
Recorded measurements of activity, negative = cell killing, one per entry
MEASUREMENT NAME: activity, negative = cell killing (%)

[
  {
    "COMPOUND": "CCC1NC(=O)c2cc(S(N)(=O)=O)c(Cl)cc2N1 (configuration not stated)",
    "MEASUREMENT NAME": "activity, negative = cell killing",
    "RESULT UNITS": "%",
    "NUMERIC RESULT": -6.38
  },
  {
    "COMPOUND": "CCCc1ncc(C[n+]2ccccc2C)c(N)n1",
    "MEASUREMENT NAME": "activity, negative = cell killing",
    "RESULT UNITS": "%",
    "NUMERIC RESULT": 11.7
  },
  {
    "COMPOUND": "CCN1CCCC(OC(=O)C(c2ccccc2)c2ccccc2)C1 (configuration not stated)",
    "MEASUREMENT NAME": "activity, negative = cell killing",
    "RESULT UNITS": "%",
    "NUMERIC RESULT": -5.6
  },
  {
    "COMPOUND": "NS(=O)(=O)c1cc2c(cc1Cl)NC(CC1CCCC1)NS2(=O)=O (configuration not stated)",
    "MEASUREMENT NAME": "activity, negative = cell killing",
    "RESULT UNITS": "%",
    "NUMERIC RESULT": -10.8
  },
  {
    "COMPOUND": "COc1cc(C(=O)NCc2ccc(OCCN(C)C)cc2)cc(OC)c1OC",
    "MEASUREMENT NAME": "activity, negative = cell killing",
    "RESULT UNITS": "%",
    "NUMERIC RESULT": -15.6
  },
  {
    "COMPOUND": "CC(C(=O)O)c1cccc(Oc2ccccc2)c1 (configuration not stated)",
    "MEASUREMENT NAME": "activity, negative = cell killing",
    "RESULT UNITS": "%",
    "NUMERIC RESULT": 4.85
  },
  {
    "COMPOUND": "COc1cc(C)nc(-n2nc(C)cc2OC)n1",
    "MEASUREMENT NAME": "activity, negative = cell killing",
    "RESULT UNITS": "%",
    "NUMERIC RESULT": 16.5
  },
  {
    "COMPOUND": "CC[C@H](c1ccc(O)cc1)[C@@H](CC)c1ccc(O)cc1",
    "MEASUREMENT NAME": "activity, negative = cell killing",
    "RESULT UNITS": "%",
    "NUMERIC RESULT": -16.2
  },
  {
    "COMPOUND": "CCOC(=O)[C@@](C)(N)Cc1ccc(O)c(O)c1",
    "MEASUREMENT NAME": "activity, negative = cell killing",
    "RESULT UNITS": "%",
    "NUMERIC RESULT": -6.91
  },
  {
    "COMPOUND": "CC(C)(C)NCC(O)COc1cccc2c1C[C@H](O)[C@H](O)C2 (some centres not stated)",
    "MEASUREMENT NAME": "activity, negative = cell killing",
    "RESULT UNITS": "%",
    "NUMERIC RESULT": -4.25
  },
  {
    "COMPOUND": "CCCCC(CC)CN1CN(CC(CC)CCCC)CC(C)(N)C1 (configuration not stated)",
    "MEASUREMENT NAME": "activity, negative = cell killing",
    "RESULT UNITS": "%",
    "NUMERIC RESULT": -6.58
  },
  {
    "COMPOUND": "C[N+]1(C)CCC(=C(c2ccccc2)c2ccccc2)CC1",
    "MEASUREMENT NAME": "activity, negative = cell killing",
    "RESULT UNITS": "%",
    "NUMERIC RESULT": 3.13
  }
]

----------
# Tested on: ATS189
# METHOD: qHTS profiling for inhibitors of Plasmodium falciparum proliferation (AID 504749); also: nearly all actives have a fitted effect of over 60% in size
# RECORDED CONDITIONS: P. falciparum in erythrocytes, SYBR Green DNA, 72 h; series mostly up to 28.7 µM
Records with an inconclusive call do not appear. The source made the active and inactive calls. Calls follow the shape of the dose curve; as a rule, active = well fitted inhibition curve with a large enough effect; inconclusive = small, poorly fitted or top-dose-only effect; inactive = flat fitted curve, though single readings scatter.
Possible outcomes: active, inactive

[
  {
    "SMILES STR": "Cc1c[nH]c2ccccc12",
    "GROUP": "inactive"
  },
  {
    "SMILES STR": "CCCCc1cc2ccccc2c(OCCN(C)C)n1",
    "GROUP": "inactive"
  },
  {
    "SMILES STR": "c1ccc(-c2nc[nH]c2-c2ccccc2)cc1",
    "GROUP": "inactive"
  },
  {
    "SMILES STR": "CCCCCCCCCCCCCCCC(=O)O",
    "GROUP": "inactive"
  },
  {
    "SMILES STR": "CCCN(CCc1cccs1)[C@H]1CCc2c(O)cccc2C1",
    "GROUP": "active"
  },
  {
    "SMILES STR": "CN1CCN(C2=Nc3ccccc3Sc3ccc(Cl)cc32)CC1",
    "GROUP": "inactive"
  },
  {
    "SMILES STR": "CCCCCCCCCCCCCC[N+](C)(C)Cc1ccccc1",
    "GROUP": "active"
  }
]

----------
# Tested on: CP315
# METHOD: qHTS profiling for inhibitors of Plasmodium falciparum proliferation (AID 504749); also: nearly all actives have a fitted effect of over 60% in size
# RECORDED CONDITIONS: P. falciparum in erythrocytes, SYBR Green DNA, 72 h; series mostly up to 28.7 µM
Results filed as inconclusive are left out. The source made the active and inactive calls. Calls come from the whole dose curve; as a rule, active = well fitted inhibition curve with a large enough effect; inconclusive = small, poorly fitted or top-dose-only effect; inactive = flat fitted curve, though single readings scatter.
Possible outcomes: active, inactive

[
  {
    "COMPOUND": "CC(C)Nc1cccnc1N1CCN(C(=O)c2cc3cc(NS(C)(=O)=O)ccc3[nH]2)CC1",
    "GROUP": "inactive"
  },
  {
    "COMPOUND": "O=C(CCN1CCN2CCCC2C1)N1c2ccccc2Sc2ccc(Cl)cc21 (stereo unspecified)",
    "GROUP": "inactive"
  },
  {
    "COMPOUND": "O=[N+]([O-])c1cccc(S(=O)(=O)NCCNS(=O)(=O)c2cccc([N+](=O)[O-])c2)c1",
    "GROUP": "inactive"
  },
  {
    "COMPOUND": "Nc1nc(-c2ccccc2)c(Br)c(=O)[nH]1",
    "GROUP": "inactive"
  },
  {
    "COMPOUND": "CCc1ccc(C(=O)C(C)CN2CCCCC2)cc1 (stereo unspecified)",
    "GROUP": "inactive"
  },
  {
    "COMPOUND": "CCOc1ccc(NC(C)=O)cc1",
    "GROUP": "inactive"
  },
  {
    "COMPOUND": "CCCCCCCCNC(C)C(O)c1ccc(SC(C)C)cc1 (stereo unspecified)",
    "GROUP": "active"
  },
  {
    "COMPOUND": "CN1CCN(C2=Nc3ccccc3Sc3ccc(Cl)cc32)CC1",
    "GROUP": "inactive"
  },
  {
    "COMPOUND": "CCOc1ccccc1C(N)=O",
    "GROUP": "inactive"
  },
  {
    "COMPOUND": "CC[C@H](c1ccc(O)cc1)[C@@H](CC)c1ccc(O)cc1",
    "GROUP": "inactive"
  },
  {
    "COMPOUND": "FC1(F)C(F)(F)C(F)(F)C2(F)C(F)(F)C(F)(F)C(F)(F)C(F)(F)C2(F)C1(F)F (stereo unspecified)",
    "GROUP": "inactive"
  }
]

----------
# Test system: WaGa
# METHOD: qHTS assay to identify novel small-molecules to repurpose for Merkel cell carcinoma treatment (AID 1296009); also: nearly all actives have a fitted effect of over 60% in size
# RECORDED CONDITIONS: MCC and control cell lines, CellTiter-Glo viability, 72 h; series mostly up to 46 µM
Inconclusive results are not listed. Activity calls are given as the source filed them. Calls follow the shape of the dose curve; as a rule, active = well fitted inhibition curve with a large enough effect; inconclusive = small, poorly fitted or top-dose-only effect; inactive = flat fitted curve, though single readings scatter.
Possible outcomes: 1.0 (active), 0.0 (inactive)

[
  {
    "MOLECULE": "CCOC(=O)Nc1ccc2c(c1)N(C(=O)CCN1CCOCC1)c1ccccc1S2",
    "GROUP": 0.0
  },
  {
    "MOLECULE": "O=C1C(O)=C(O)C(=O)C(O)=C1O",
    "GROUP": 0.0
  },
  {
    "MOLECULE": "NS(=O)(=O)c1ccc(Cl)c(S(N)(=O)=O)c1",
    "GROUP": 0.0
  },
  {
    "MOLECULE": "CC(=O)Nc1ccc(OC(=O)c2ccccc2OC(C)=O)cc1",
    "GROUP": 0.0
  },
  {
    "MOLECULE": "Cc1nc(-c2ccc(Cl)cc2)oc1COC(C)(C)C(=O)O",
    "GROUP": 0.0
  },
  {
    "MOLECULE": "OC1C(O)C(O)C(O)C(O)C1O (stereo unspecified)",
    "GROUP": 0.0
  },
  {
    "MOLECULE": "CC1(C)OC[C@@H]2O[C@@]3(C(=O)O)OC(C)(C)O[C@H]3[C@@H]2O1",
    "GROUP": 0.0
  },
  {
    "MOLECULE": "OCCOCCN1CCN(C2=Nc3ccccc3Sc3ccccc32)CC1",
    "GROUP": 0.0
  },
  {
    "MOLECULE": "OC(C#CCN1CCCC1)(c1ccccc1)c1ccccc1",
    "GROUP": 0.0
  },
  {
    "MOLECULE": "CCC1NC(=O)c2cc(S(N)(=O)=O)c(Cl)cc2N1 (stereo unspecified)",
    "GROUP": 0.0
  },
  {
    "MOLECULE": "COc1cc(C(=S)N2CCOCC2)ccc1O",
    "GROUP": 0.0
  },
  {
    "MOLECULE": "CO[C@]12C[C@@H](COC(=O)c3cncc(Br)c3)CN(C)[C@@H]1Cc1cn(C)c3cccc2c13",
    "GROUP": 0.0
  },
  {
    "MOLECULE": "O=C(NC1CCN(CCc2c[nH]c3ccccc23)CC1)c1ccccc1",
    "GROUP": 0.0
  },
  {
    "MOLECULE": "CCCCCCCCCCCCCCC[C@H](O)[C@@H](N)CO",
    "GROUP": 0.0
  },
  {
    "MOLECULE": "CC(=O)O[C@]1(C(C)=O)CC[C@H]2[C@@H]3C=C(Cl)C4=CC(=O)CC[C@]4(C)[C@H]3CC[C@@]21C",
    "GROUP": 0.0
  },
  {
    "MOLECULE": "C#C[C@]1(O)CC[C@H]2[C@@H]3[C@H](C)CC4=C(CCC(=O)C4)[C@H]3CC[C@@]21C",
    "GROUP": 1.0
  },
  {
    "MOLECULE": "CC(=O)O[C@H]1C[C@@H]2CC[C@@H]3[C@H](CC[C@@]4(C)[C@H]3C[C@H]([N+]3(C)CCCCC3)[C@@H]4OC(C)=O)[C@@]2(C)C[C@@H]1N1CCCCC1",
    "GROUP": 0.0
  },
  {
    "MOLECULE": "CCOc1ccccc1OCCN[C@H](C)Cc1ccc(OC)c(S(N)(=O)=O)c1",
    "GROUP": 0.0
  },
  {
    "MOLECULE": "CCN(CC)CCOC(=O)C1(c2ccccc2)CCCC1",
    "GROUP": 0.0
  },
  {
    "MOLECULE": "NS(=O)(=O)c1cc(C(=O)O)cc(N2CCCC2)c1Oc1ccccc1",
    "GROUP": 0.0
  },
  {
    "MOLECULE": "CC1=C(C(=O)O)N2C(=O)[C@@H](NC(=O)[C@H](N)c3ccccc3)[C@H]2SC1",
    "GROUP": 0.0
  }
]
